tested on: rat glomerular nephritis; experiment: Action on rat glomerular nephritis (nephrotoxic serum-induced nephritis; urinary protein excretion); type: in vivo; conditions: male WKY rats, NTS-induced nephritis; 30 mg/kg/10 ml orally twice a day for 8 days; 24 h urine collected after 7 days
measurement_type: Inhibition rate (of excretion of protein in urine) (%)
Numeric answer only, unit % assumed.

**Q:** Annotate the molecule C=CS(=O)(=O)NCC1Cc2ccc(-c3ccc(=O)[nH]n3)cc2C1 (stereo not drawn) [Example 4] with its measured Inhibition rate (of excretion of protein in urine).
**A:** 61.5

**Q:** Annotate the molecule C=CS(=O)(=O)NCCCC1Cc2ccc(-c3ccc(=O)[nH]n3)cc2C1 (stereo not drawn) [Example 19] with its measured Inhibition rate (of excretion of protein in urine).
**A:** 91.8

**Q:** Annotate the molecule C=CS(=O)(=O)NCCCCC1Cc2ccc(-c3ccc(=O)[nH]n3)cc2C1 (stereo not drawn) [Example 12] with its measured Inhibition rate (of excretion of protein in urine).
**A:** 67.5

**Q:** Annotate the molecule C=CS(=O)(=O)NCCC1Cc2ccc(-c3ccc(=O)[nH]n3)cc2C1 (stereo not drawn) [Example 8] with its measured Inhibition rate (of excretion of protein in urine).
**A:** 71.6

**Q:** Annotate the molecule CCCS(=O)(=O)NCCC1Cc2ccc(-c3ccc(=O)[nH]n3)cc2C1 (stereo not drawn) [Example 7] with its measured Inhibition rate (of excretion of protein in urine).
**A:** 77.2

**Q:** Annotate the molecule CCS(=O)(=O)NCCC1Cc2ccc(-c3ccc(=O)[nH]n3)cc2C1 (stereo not drawn) [Example 6] with its measured Inhibition rate (of excretion of protein in urine).
**A:** 65.1

Where these numbers come from: patent US5686452A
